Literature pIC50 values, system: Endothelin-1 receptor (Sus scrofa, UniProt Q29010).
Answers are plain numbers, as −log10 of the molar value.

Some solved cases for reference:
{"molecule": "COc1ccccc1Oc1c(NS(=O)(=O)c2ccc(C(C)(C)C)cc2)nc(N2CCOCC2)nc1OCCC(=O)OCc1ccccc1", "observation_type": "pIC50", "result": 6.62}
{"molecule": "CCOc1cccc(C(CC)n2nc(C(=O)O)c3c2-c2ccc(OCc4cncnc4)cc2CC3)c1 (centres unmarked)", "observation_type": "pIC50", "result": 8.35}
{"molecule": "CCOCC(c1cccc(OCC)c1)n1nc(C(=O)O)c2c1-c1ccc(OCc3cncnc3)cc1CC2 (centres unmarked)", "observation_type": "pIC50", "result": 8.13}
{"molecule": "COc1cccc(Cn2nc(C(=O)O)c3c2-c2ccc(OCc4cncnc4)cc2CC3)c1", "observation_type": "pIC50", "result": 7.51}
{"molecule": "CCC[C@@H](O)[C@H](C(=O)O)c1ccc2c(c1)OCO2 (racemic)", "observation_type": "pIC50", "result": 6.28}

# return pIC50 for each item in the list
1. COc1ccccc1Oc1c(NS(=O)(=O)c2ccc(C(C)(C)C)cc2)nc(N2CCOCC2)nc1OCCC(=O)Nc1ccccn1
2. CCOc1cccc(Cn2nc(C(=O)O)c3c2-c2ccc(OCc4cncnc4)cc2CC3)c1
3. CCOc1cccc(C(c2ccccn2)n2nc(C(=O)O)c3c2-c2ccc(OCc4cncnc4)cc2CC3)c1 (centres unmarked)

result:
1: 7.49; 2: 7.77; 3: 8.60
